molecular target: Solute carrier family 2, facilitated glucose transporter member 1 (Homo sapiens) (UniProt P11166); assay: ST_JUDE_LEISH: Cytotoxicity at 2uM final concentration against transgenic Leishmania Mexicana promastigotes LmGLUT1 that are glucose transport deficient and complemented with the human glucose transporter GLUT1. Activity is measured by DNA content using SYBR green in vitro; assay type: functional
Sequence (P11166 whole entry): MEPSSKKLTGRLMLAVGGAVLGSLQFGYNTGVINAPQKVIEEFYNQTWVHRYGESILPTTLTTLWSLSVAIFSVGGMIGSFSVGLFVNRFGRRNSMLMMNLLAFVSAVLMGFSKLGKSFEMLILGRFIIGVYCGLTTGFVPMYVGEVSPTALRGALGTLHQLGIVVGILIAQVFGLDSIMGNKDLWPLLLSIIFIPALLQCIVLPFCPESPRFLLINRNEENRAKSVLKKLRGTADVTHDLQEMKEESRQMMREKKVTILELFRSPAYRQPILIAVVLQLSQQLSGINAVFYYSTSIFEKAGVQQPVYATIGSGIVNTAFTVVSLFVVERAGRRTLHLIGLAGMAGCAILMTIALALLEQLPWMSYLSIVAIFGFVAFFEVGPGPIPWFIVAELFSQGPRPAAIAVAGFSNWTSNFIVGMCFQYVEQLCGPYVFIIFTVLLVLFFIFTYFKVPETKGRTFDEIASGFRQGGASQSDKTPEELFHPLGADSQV
MEASUREMENT_LABEL: inhibition

{"COMPOUND": "Cc1ccc(NC(=O)c2ccc(Cl)c(Cl)c2)cc1-c1ccc(C(=O)Nc2ccncc2)cc1", "MEASUREMENT_LABEL": "inhibition", "RESULT": "-0.14%"}
{"COMPOUND": "O=C(Nc1cccc(Cl)c1Cl)Nc1ccnc2ccccc12", "MEASUREMENT_LABEL": "inhibition", "RESULT": "7.59%"}
{"COMPOUND": "CCCO[C@H](C(=O)OC)[C@@H](CC1Cc2ccccc2C1)C(=O)NCCC1=CCCCC1", "MEASUREMENT_LABEL": "inhibition", "RESULT": "1.54%"}
{"COMPOUND": "O=C(NCC1CCN(C/C=C/c2ccccc2)CC1)Nc1ccc(Oc2ccccc2)cc1", "MEASUREMENT_LABEL": "inhibition", "RESULT": "6.42%"}
{"COMPOUND": "CC(=O)Nc1ccc(C(=O)NC2CCN(c3ccnc4cc(Cl)ccc34)C2)cc1 (stereo not drawn)", "MEASUREMENT_LABEL": "inhibition", "RESULT": "0.36%"}
{"COMPOUND": "Nc1ncc(-c2cn[nH]c2)cc1-c1nc2ccc(F)cc2[nH]1", "MEASUREMENT_LABEL": "inhibition", "RESULT": "2.58%"}
{"COMPOUND": "Brc1ccc(Nc2nc(NCC3CCCO3)c3ccccc3n2)cc1 (stereo not drawn)", "MEASUREMENT_LABEL": "inhibition", "RESULT": "24.2%"}
{"COMPOUND": "Fc1cccc(COc2ccc(Nc3ncnc4ccc(C#C[C@H]5CCCN5)cc34)cc2Cl)c1", "MEASUREMENT_LABEL": "inhibition", "RESULT": "1.39%"}
{"COMPOUND": "COc1ccc(CON2C(=N)N=C(N)NC2(C)C)cc1OC", "MEASUREMENT_LABEL": "inhibition", "RESULT": "-1.03%"}
{"COMPOUND": "Cc1cc(N2CCCN(CC3CCCCC3)CC2)nc(Nc2ccc(Br)cc2)n1", "MEASUREMENT_LABEL": "inhibition", "RESULT": "1.81%"}
{"COMPOUND": "C[C@H](Cc1ccc(OCCCCCCOc2ccc(C[C@@H](C)NC(=O)[C@H](O)c3cccc(Cl)c3)cc2)cc1)NC[C@H](O)c1cccc(Cl)c1", "MEASUREMENT_LABEL": "inhibition", "RESULT": "7.21%"}
{"COMPOUND": "O=C(/C=C/c1ccc(Cl)c(Cl)c1)NCC(CCCN1CCC(c2c[nH]c3ccccc23)CC1)c1ccccc1 (stereo not drawn)", "MEASUREMENT_LABEL": "inhibition", "RESULT": "3.06%"}
{"COMPOUND": "Cc1noc(-c2ccc(O)cc2O)c1-c1ccc2c(c1)OCCCO2", "MEASUREMENT_LABEL": "inhibition", "RESULT": "0.11%"}
{"COMPOUND": "O=C(O[C@H]1CN[C@H](C#Cc2cc3c(Nc4ccc(OCc5cccc(F)c5)c(Cl)c4)ncnc3s2)C1)N1CCCC1", "MEASUREMENT_LABEL": "inhibition", "RESULT": "3.78%"}
{"COMPOUND": "CC1CN(c2cc(=O)n(Cc3ccc(NC(=O)Nc4ccc(-c5ccccc5)cc4)cc3)cn2)CC(C)N1 (stereo not drawn)", "MEASUREMENT_LABEL": "inhibition", "RESULT": "1.33%"}
{"COMPOUND": "CCCSc1nc2c(c(=O)n1Cc1ccco1)C1(CCCCC1)Cc1ccccc1-2", "MEASUREMENT_LABEL": "inhibition", "RESULT": "1.22%"}
{"COMPOUND": "CCOC(=O)c1ccc(OCc2ccc(-c3ccccc3)cc2)cc1", "MEASUREMENT_LABEL": "inhibition", "RESULT": "-0.38%"}
{"COMPOUND": "O=C(Nc1ccc(C(=O)N2CCN(CCN3CCN(c4cccc(C(F)(F)F)c4)CC3)CC2)cc1)c1cc(Cl)cc(Cl)c1", "MEASUREMENT_LABEL": "inhibition", "RESULT": "3.84%"}
{"COMPOUND": "Cc1cc(Cl)c(S(=O)(=O)NC2CCCC2)cc1OCC(=O)NC1CCCCC1", "MEASUREMENT_LABEL": "inhibition", "RESULT": "3.49%"}
{"COMPOUND": "O=C(NOCCCCOc1ccc(Cl)c(Cl)c1)c1ccccc1", "MEASUREMENT_LABEL": "inhibition", "RESULT": "-2.66%"}
{"COMPOUND": "Cc1ccc2[nH]c(Nc3ccc(Nc4nc5cc(C)ccc5[nH]4)c(C)c3)nc2c1", "MEASUREMENT_LABEL": "inhibition", "RESULT": "0.87%"}
{"COMPOUND": "CCOC(=O)c1ccc(NC(=O)Nc2cccc(-c3ccc(-c4nc5ccccc5[nH]4)cc3)c2)cc1", "MEASUREMENT_LABEL": "inhibition", "RESULT": "5.47%"}
{"COMPOUND": "CN(C)CCC(O)(c1ccc(Br)cc1)c1cccnc1 (stereo not drawn)", "MEASUREMENT_LABEL": "inhibition", "RESULT": "3.13%"}
{"COMPOUND": "Cc1nc2ccc3ccc(CNc4ccc(C(=O)CC(CCC(=O)O)C(=O)O)cc4)cc3c2c(=O)[nH]1 (stereo not drawn)", "MEASUREMENT_LABEL": "inhibition", "RESULT": "-0.57%"}
{"COMPOUND": "CCN(CC)C(=O)C1CCCN(C(=O)Nc2cc(C(F)(F)F)cc(C(F)(F)F)c2)C1 (stereo not drawn)", "MEASUREMENT_LABEL": "inhibition", "RESULT": "0.66%"}
{"COMPOUND": "COc1ccc(CCON2C(=N)N=C(N)NC2(C)C)cc1OC", "MEASUREMENT_LABEL": "inhibition", "RESULT": "2.04%"}
{"COMPOUND": "OCCN1CCN(Cc2ccc(-c3ccc(-c4nc5cc(F)ccc5[nH]4)cc3)cc2)CC1", "MEASUREMENT_LABEL": "inhibition", "RESULT": "8.49%"}
{"COMPOUND": "CC(CO)(CO)NCc1cc2c3ccccc3c(CNC(C)(CO)CO)cc2c2ccccc12", "MEASUREMENT_LABEL": "inhibition", "RESULT": "5.4%"}
{"COMPOUND": "N#Cc1cccc(NC(=O)c2ccc(S(=O)(=O)NCC3CCCN3CC3CCCCC3)cc2)c1 (stereo not drawn)", "MEASUREMENT_LABEL": "inhibition", "RESULT": "2.47%"}
{"COMPOUND": "COc1ccc(CNCc2ccc(-c3cccc(-c4nc5cccc(C)c5[nH]4)c3)cc2)cc1", "MEASUREMENT_LABEL": "inhibition", "RESULT": "2.87%"}
{"COMPOUND": "O=C(NC1CC1)c1cnc(N2CCC(Cc3ccccc3)CC2)c(Cl)c1", "MEASUREMENT_LABEL": "inhibition", "RESULT": "0.75%"}
{"COMPOUND": "CC(CN(C)C)Oc1ccc2nc(-c3cccc(OCc4ccccc4)c3)[nH]c2c1C#N (stereo not drawn)", "MEASUREMENT_LABEL": "inhibition", "RESULT": "-1.18%"}
{"COMPOUND": "CCNc1cc(C(=O)N[C@@H](Cc2ccccc2)[C@H](O)CNC(C)(C)Cc2cccc(Cl)c2)cc(N2CCCCS2(=O)=O)c1", "MEASUREMENT_LABEL": "inhibition", "RESULT": "5.21%"}
{"COMPOUND": "CO/C(=C\\C=C\\c1cc2cc(Cl)c(Cl)cc2[nH]1)C(=O)NC1CCN(CCCc2ccccc2)CC1", "MEASUREMENT_LABEL": "inhibition", "RESULT": "0.89%"}
{"COMPOUND": "Cc1cc(N[C@@H](CC(C)C)C(=O)NCc2cccs2)nc(Nc2ccccc2)n1", "MEASUREMENT_LABEL": "inhibition", "RESULT": "5.66%"}
{"COMPOUND": "CCOCCCn1c(=N)c(C(=O)NC(C)c2ccccc2)cc2c(=O)n3cccc(C)c3nc21 (stereo not drawn)", "MEASUREMENT_LABEL": "inhibition", "RESULT": "7.84%"}
{"COMPOUND": "Fc1ccc2[nH]c(-c3cccc(-c4cccc(CNCC5CCCO5)c4)c3)nc2c1 (stereo not drawn)", "MEASUREMENT_LABEL": "inhibition", "RESULT": "-0.33%"}
{"COMPOUND": "COc1ccc2nc(-c3ccc(C(=O)NCCCN4CCN(c5cc(Cl)ccc5OC)CC4)cc3)[nH]c2c1", "MEASUREMENT_LABEL": "inhibition", "RESULT": "0.75%"}

This collection of values is drawn from ChEMBL document CHEMBL3433997.
